# assay_target: sSema 4D (Homo sapiens)
# Sequence (Q92854 22-734 limits assumed): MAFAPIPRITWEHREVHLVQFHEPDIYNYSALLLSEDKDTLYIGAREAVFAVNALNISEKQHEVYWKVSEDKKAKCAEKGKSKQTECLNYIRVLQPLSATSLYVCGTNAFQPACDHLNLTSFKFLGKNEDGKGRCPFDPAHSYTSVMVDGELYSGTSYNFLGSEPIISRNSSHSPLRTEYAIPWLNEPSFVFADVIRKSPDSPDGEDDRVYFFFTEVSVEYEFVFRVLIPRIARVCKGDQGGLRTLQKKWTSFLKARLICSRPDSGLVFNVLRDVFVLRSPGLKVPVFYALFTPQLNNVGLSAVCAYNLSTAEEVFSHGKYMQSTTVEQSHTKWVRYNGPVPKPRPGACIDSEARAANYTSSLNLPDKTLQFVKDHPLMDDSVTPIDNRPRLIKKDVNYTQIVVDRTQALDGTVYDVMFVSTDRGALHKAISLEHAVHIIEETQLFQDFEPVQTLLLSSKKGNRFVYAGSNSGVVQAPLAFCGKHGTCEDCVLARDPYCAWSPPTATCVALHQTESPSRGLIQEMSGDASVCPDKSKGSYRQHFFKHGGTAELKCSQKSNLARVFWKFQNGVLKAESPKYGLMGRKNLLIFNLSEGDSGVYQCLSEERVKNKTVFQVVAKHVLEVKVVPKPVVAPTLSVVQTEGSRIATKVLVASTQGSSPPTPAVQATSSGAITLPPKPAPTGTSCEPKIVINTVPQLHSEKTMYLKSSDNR
Where a SMILES comes first, the peptide text is derived from it.
I'd be grateful if you could share measured pKd for these entries.
// pKd: -log10(molar conc.)

Data request, read-out pKd, for N=C(N)NCCC[C@H](NC(=O)[C@@H]1CCCN1C(=O)[C@H](CCCNC(=N)N)NC(=O)[C@H](CCCCN)NC(=O)[C@H](CCC(N)=O)NC(=O)[C@@H](N)CCCCN)C(=O)N[C@@H](Cc1c[nH]cn1)C(=O)O [TP-7] (H-KQKRPRH-OH)
7.84

Which pKd value is on record for CC(C)[C@H](NC(=O)[C@H](CCCNC(=N)N)NC(=O)[C@H](C)NC(=O)[C@@H]1CCCN1C(=O)[C@H](C)NC(=O)[C@@H](N)CCCCN)C(=O)NCC(=O)O [TP-10] (H-KAPARVG-OH) ?
7.19

Find the recorded pKd belonging to C[C@H](NC(=O)[C@H](C)NC(=O)[C@H](CCCCN)NC(=O)[C@H](CC(N)=O)NC(=O)[C@@H](N)CCCCN)C(=O)N[C@@H](CCCCN)C(=O)NCC(=O)O [TP-2] (H-KNKAAKG-OH) and report it.
7.38
